Reference source: ChEMBL document CHEMBL1800071

- Assayed Target: Glycogen synthase kinase-3 beta (Homo sapiens)
- Sequence (P49841 whole entry): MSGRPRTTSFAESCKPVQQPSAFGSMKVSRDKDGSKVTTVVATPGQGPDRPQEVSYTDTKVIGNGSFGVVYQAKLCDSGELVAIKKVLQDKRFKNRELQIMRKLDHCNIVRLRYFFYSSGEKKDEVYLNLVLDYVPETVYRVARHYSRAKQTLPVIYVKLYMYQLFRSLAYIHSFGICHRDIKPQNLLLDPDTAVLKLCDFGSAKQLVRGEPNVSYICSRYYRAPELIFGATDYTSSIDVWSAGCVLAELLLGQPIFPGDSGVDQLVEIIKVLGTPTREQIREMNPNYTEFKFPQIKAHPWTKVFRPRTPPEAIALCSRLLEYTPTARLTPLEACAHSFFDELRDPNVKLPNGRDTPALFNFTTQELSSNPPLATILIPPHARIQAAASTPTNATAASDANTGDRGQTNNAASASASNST
- Protocol Summary: Inhibition of GSK3-beta using GS1 as substrate and [gamma-32P]ATP after 20 mins by radiometric assay
IC50 vs 2 µM: less than gives fulfilled; not less than gives not fulfilled.

>  <Cpd Smiles>
CC(=O)OCC(=O)c1ccc(Br)cc1

>  <Answer Label>
not fulfilled

$$$$
>  <Cpd Smiles>
O=C(c1ccccn1)C(Br)Br

>  <Answer Label>
not fulfilled

$$$$
>  <Cpd Smiles>
O=C(CSCc1ccccc1)c1ccc(Br)cc1

>  <Answer Label>
not fulfilled

$$$$
>  <Cpd Smiles>
Nc1c(Br)cc(C(=O)C(Br)Br)cc1Br

>  <Answer Label>
fulfilled

$$$$
>  <Cpd Smiles>
O=C(CO)c1ccc(Br)cc1

>  <Answer Label>
not fulfilled

$$$$
>  <Cpd Smiles>
N#Cc1ccc(C(=O)C(Br)Br)cc1

>  <Answer Label>
fulfilled

$$$$
>  <Cpd Smiles>
NCC(=O)c1ccc(Br)cc1

>  <Answer Label>
not fulfilled

$$$$
>  <Cpd Smiles>
O/N=C(\CBr)c1ccc(Br)cc1

>  <Answer Label>
not fulfilled

$$$$
>  <Cpd Smiles>
O=C(CSc1ccccc1)c1ccc(Br)cc1

>  <Answer Label>
not fulfilled

$$$$
>  <Cpd Smiles>
O=C(CBr)c1ccc(C(F)(F)F)cc1

>  <Answer Label>
not fulfilled

$$$$
